Each entry below carries its reported inhibition of growth at 50 µM.
# System: SK-OV-3
# testDetails: Cytotoxicity against human SKOV3 cells assessed as age growth inhibition at 50 uM after 48 hrs by sulforhodamine B assay
# Format: functional
# runConditions: SK-OV-3, 48 h, read-out: GI
Dear colleague, please return just the value in %, with no unit written.

{"chemicalString": "CC1(C)CCC[C@@]2(C)C1=C[C@H]1C(=O)O[C@H](c3ccccc3)[C@H]12", "inhibition of growth at 50 µM [%]": 30}
{"chemicalString": "CC1(C)CCC[C@@]2(C)C1=C[C@H]1C(=O)O[C@H](c3ccc(Br)cc3)[C@H]12", "inhibition of growth at 50 µM [%]": 28}

Let us examine a further case.
Fill in: inhibition of growth at 50 µM of `Cc1ccc([C@H]2OC(=O)[C@@H]3C=C4C(C)(C)CCC[C@]4(C)[C@H]23)cc1` is ___
29
